Reported pKd values are given for each entry in this list.
- system under test: PD-L1 (Homo sapiens)
- Construct: expressed in transfected cells; host or cells: PC3 cells (human prostate carcinoma), stably transduced
- test: Real-time radioligand binding (LigandTracer) on PC3 PD-L1 cells
- cond: real-time binding, medium + 2.5% BSA, n = 1
Quick note: pKd values are minus log10 of concentrations in mol/L.

Fill in the recorded pKd for this compound, with PD-L1 (Homo sapiens) as test system: Cc1c(COc2cc(OCc3cncc(S(C)(=O)=O)c3)c(CN[C@@H](CS(=O)(=O)O)C(=O)NCCP(=O)(O)O)cc2Cl)cccc1-c1cccc(OCc2cn(CCCN3CCN(C(=O)[C@H](CP(=O)(O)O)NC(=O)CC[C@H](C(=O)O)N4CCN(CC(=O)O)CCN(CC(=O)O)CC4)CC3)nn2)c1C.[64Cu+2] [[^64Cu]Cu-6] 7.38

---

- Tested on: PC3 mock tumor
- test: Small-animal PET, uptake in mock tumor
- cond: 1.5 (1–2) hours p.i., tracer only
- Protocol: Changes are reported as % change of the SUVmax of the PD-L1 expressing over the respective value of the mock tumor. […] Animal experiments were performed in accordance with the guidelines of the German Regulations for Animal Welfare, approved by the Saxonian Ethical Committee for Animal Experiments (reference number DD24.1-5131/449/49). […] Tumor growth was monitored three times a week by caliper measurements, and mice with tumor sizes above 7 mm were included in the experiments. […]
property label: SUVmax PC3 mock tumor
The answer should be a number; do not append a unit.

Example molecules with recorded SUVmax PC3 mock tumor:
# molecule, SUVmax PC3 mock tumor
measured = [
    ("Cc1c(COc2cc(OCc3cncc(S(C)(=O)=O)c3)c(CN[C@@H](CS(=O)(=O)O)C(=O)NCCP(=O)(O)O)cc2Cl)cccc1-c1cccc(OCc2cn(CCCN3CCN(C(=O)[C@H](CS(=O)(=O)O)NC(=O)CC[C@H](C(=O)O)N4CCN(CC(=O)O)CCN(CC(=O)O)CC4)CC3)nn2)c1C.[64Cu+2] [[^64Cu]Cu-5]", 0.80),
    ("Cc1c(COc2cc(OCc3cncc(S(C)(=O)=O)c3)c(CN[C@@H](CS(=O)(=O)O)C(=O)NCCS(=O)(=O)O)cc2Cl)cccc1-c1cccc(OCc2cn(CCCN3CCN(C(=O)[C@H](CS(=O)(=O)O)NC(=O)CC[C@H](C(=O)O)N4CCN(CC(=O)O)CCN(CC(=O)O)CC4)CC3)nn2)c1C.[64Cu+2] [[^64Cu]Cu-3]", 0.85),
    ("Cc1c(COc2cc(OCc3cncc(S(C)(=O)=O)c3)c(CN[C@@H](CS(=O)(=O)O)C(=O)NCCP(=O)(O)O)cc2Cl)cccc1-c1cccc(OCc2cn(CCCN3CCN(C(=O)CC[C@H](C(=O)O)N4CCN(CC(=O)O)CCN(CC(=O)O)CC4)CC3)nn2)c1C.[64Cu+2] [[^64Cu]Cu-4]", 0.8),
    ("Cc1c(COc2cc(OCc3cncc(C#N)c3)c(CN[C@@H](CS(=O)(=O)O)C(=O)NCCS(=O)(=O)O)cc2Cl)cccc1-c1cccc(OCc2cn(CCCN3CCN(C(=O)[C@H](CS(=O)(=O)O)NC(=O)CC[C@H](C(=O)O)N4CCN(CC(=O)O)CCN(CC(=O)O)CC4)CC3)nn2)c1C.[64Cu+2] [[^64Cu]Cu-1]", 1.0),
]

Proceeding to the next molecule to report its SUVmax PC3 mock tumor.
Return reported SUVmax PC3 mock tumor; argument: Cc1c(COc2cc(OCc3cncc(S(C)(=O)=O)c3)c(CN[C@@H](CS(=O)(=O)O)C(=O)NCCP(=O)(O)O)cc2Cl)cccc1-c1cccc(OCc2cn(CCCN3CCN(C(=O)[C@H](CP(=O)(O)O)NC(=O)CC[C@H](C(=O)O)N4CCN(CC(=O)O)CCN(CC(=O)O)CC4)CC3)nn2)c1C.[64Cu+2] [[^64Cu]Cu-6] 0.83

---

- system under test: PD-L1 (Homo sapiens)
- Construct: expressed in transfected cells; host or cells: PC3 cells (human prostate carcinoma), stably transduced
- test: Real-time radioligand binding (LigandTracer) on PC3 PD-L1 cells
- cond: medium only (no BSA), n = 2, mean ± S.D.
Reported Bmax [normalized (%)] values are given for each entry in this list.
Express the result in % but write the number alone.

Example molecules with recorded Bmax [normalized (%)]:
# molecule, recorded result
measured = [
    ("Cc1c(COc2cc(OCc3cncc(S(C)(=O)=O)c3)c(CN[C@@H](CS(=O)(=O)O)C(=O)NCCP(=O)(O)O)cc2Cl)cccc1-c1cccc(OCc2cn(CCCN3CCN(C(=O)CC[C@H](C(=O)O)N4CCN(CC(=O)O)CCN(CC(=O)O)CC4)CC3)nn2)c1C.[64Cu+2] [[^64Cu]Cu-4]", 846),
    ("Cc1c(COc2cc(OCc3cncc(S(C)(=O)=O)c3)c(CN[C@@H](CS(=O)(=O)O)C(=O)NCCS(=O)(=O)O)cc2Cl)cccc1-c1cccc(OCc2cn(CCCN3CCN(C(=O)[C@H](CS(=O)(=O)O)NC(=O)CC[C@H](C(=O)O)N4CCN(CC(=O)O)CCN(CC(=O)O)CC4)CC3)nn2)c1C.[64Cu+2] [[^64Cu]Cu-3]", 95.9),
    ("Cc1c(COc2cc(OCc3cncc(C#N)c3)c(CN[C@@H](CS(=O)(=O)O)C(=O)NCCS(=O)(=O)O)cc2Cl)cccc1-c1cccc(OCc2cn(CCCN3CCN(C(=O)[C@H](CS(=O)(=O)O)NC(=O)CC[C@H](C(=O)O)N4CCN(CC(=O)O)CCN(CC(=O)O)CC4)CC3)nn2)c1C.[64Cu+2] [[^64Cu]Cu-1]", 186),
    ("Cc1c(COc2cc(OCc3cncc(S(C)(=O)=O)c3)c(CN[C@@H](CS(=O)(=O)O)C(=O)NCCP(=O)(O)O)cc2Cl)cccc1-c1cccc(OCc2cn(CCCN3CCN(C(=O)[C@H](CP(=O)(O)O)NC(=O)CC[C@H](C(=O)O)N4CCN(CC(=O)O)CCN(CC(=O)O)CC4)CC3)nn2)c1C.[64Cu+2] [[^64Cu]Cu-6]", 107),
]

Proceeding to the next molecule to report its Bmax [normalized (%)].
Return reported Bmax [normalized (%)]; argument: Cc1c(COc2cc(OCc3cncc(S(C)(=O)=O)c3)c(CN[C@@H](CS(=O)(=O)O)C(=O)NCCP(=O)(O)O)cc2Cl)cccc1-c1cccc(OCc2cn(CCCN3CCN(C(=O)[C@H](CS(=O)(=O)O)NC(=O)CC[C@H](C(=O)O)N4CCN(CC(=O)O)CCN(CC(=O)O)CC4)CC3)nn2)c1C.[64Cu+2] [[^64Cu]Cu-5] 446

---

Reported Kd values are given for each entry in this list.
- system under test: PD-L1 (Homo sapiens, UniProt Q9NZQ7)
- Construct: expressed in transfected cells; host or cells: PC3 cells (human prostate carcinoma), stably transduced
- Sequence (Q9NZQ7 19-290): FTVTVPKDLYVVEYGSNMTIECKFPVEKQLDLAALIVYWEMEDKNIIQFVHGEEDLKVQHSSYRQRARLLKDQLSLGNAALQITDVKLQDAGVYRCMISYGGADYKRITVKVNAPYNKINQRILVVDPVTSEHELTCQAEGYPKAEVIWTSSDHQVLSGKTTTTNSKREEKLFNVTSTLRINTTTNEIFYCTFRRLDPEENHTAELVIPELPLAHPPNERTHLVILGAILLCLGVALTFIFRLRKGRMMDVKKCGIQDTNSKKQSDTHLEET
- test: Saturation binding assay on live PC3 PD-L1 overexpressing cells
- cond: saturation binding, live PC3 PD-L1 overexpressing cells, 2.5% BSA, 90 min at 4 °C; mean ± SD, at least three experiments; read-out: KD
Express the result in nM but write the number alone.

# molecule, Kd / nM
rows = [
    ("Cc1c(COc2cc(OCc3cncc(C#N)c3)c(CN[C@@H](CS(=O)(=O)O)C(=O)NCCS(=O)(=O)O)cc2Cl)cccc1-c1cccc(OCc2cn(CCCN3CCN(C(=O)[C@H](CS(=O)(=O)O)NC(=O)CC[C@H](C(=O)O)N4CCN(CC(=O)O)CCN(CC(=O)O)CC4)CC3)nn2)c1C.[64Cu+2] [[^64Cu]Cu-1]", 80.5),
    ("Cc1c(COc2cc(OCc3cncc(S(C)(=O)=O)c3)c(CN[C@@H](CS(=O)(=O)O)C(=O)NCCP(=O)(O)O)cc2Cl)cccc1-c1cccc(OCc2cn(CCCN3CCN(C(=O)[C@H](CS(=O)(=O)O)NC(=O)CC[C@H](C(=O)O)N4CCN(CC(=O)O)CCN(CC(=O)O)CC4)CC3)nn2)c1C.[64Cu+2] [[^64Cu]Cu-5]", 112),
    ("Cc1c(COc2cc(OCc3cncc(S(C)(=O)=O)c3)c(CN[C@@H](CS(=O)(=O)O)C(=O)NCCS(=O)(=O)O)cc2Cl)cccc1-c1cccc(OCc2cn(CCCN3CCN(C(=O)[C@H](CS(=O)(=O)O)NC(=O)CC[C@H](C(=O)O)N4CCN(CC(=O)O)CCN(CC(=O)O)CC4)CC3)nn2)c1C.[64Cu+2] [[^64Cu]Cu-3]", 93.7),
]

Proceeding to the next molecule to report its Kd.
Return reported Kd; argument: Cc1c(COc2cc(OCc3cncc(S(C)(=O)=O)c3)c(CN[C@@H](CS(=O)(=O)O)C(=O)NCCP(=O)(O)O)cc2Cl)cccc1-c1cccc(OCc2cn(CCCN3CCN(C(=O)CC[C@H](C(=O)O)N4CCN(CC(=O)O)CCN(CC(=O)O)CC4)CC3)nn2)c1C.[64Cu+2] [[^64Cu]Cu-4] 82.4
